# Target under test: Glutathione-S-transferase-labeled FXR human protein (Homo sapiens)
# Construct: purchased Invitrogen
# Sequence (Q96RI1 1-486): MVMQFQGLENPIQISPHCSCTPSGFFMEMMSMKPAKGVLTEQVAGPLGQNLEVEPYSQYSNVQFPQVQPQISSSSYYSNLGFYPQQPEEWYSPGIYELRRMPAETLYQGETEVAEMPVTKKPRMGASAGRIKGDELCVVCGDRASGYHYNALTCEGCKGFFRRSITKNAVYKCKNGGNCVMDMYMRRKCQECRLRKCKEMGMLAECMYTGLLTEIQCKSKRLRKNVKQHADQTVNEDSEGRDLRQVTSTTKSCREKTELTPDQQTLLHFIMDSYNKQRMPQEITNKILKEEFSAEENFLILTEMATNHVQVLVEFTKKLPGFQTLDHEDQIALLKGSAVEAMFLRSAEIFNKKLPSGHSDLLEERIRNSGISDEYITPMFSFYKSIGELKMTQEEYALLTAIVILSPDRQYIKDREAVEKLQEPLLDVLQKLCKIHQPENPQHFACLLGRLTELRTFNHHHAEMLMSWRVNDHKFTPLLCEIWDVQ
# Protocol notes: FXR biochemical experiment (AlphaScreen, coactivator recruitment)
# Cond: ratio of highest signal of the compound to that of the reference compound; read-out: FXR enzyme activity Efficacy
Tick TRUE if Emax is 200% or greater. Tick FALSE if Emax is less than 200%.

Record excerpt, results attached:
Molecule: CC[C@H]1[C@@H](O)[C@@H]2[C@H](CC[C@]3(C)[C@@H]([C@H](C)CCOc4ccc(C(=O)NCCS(=O)(=O)O)cn4)CC[C@@H]23)[C@@]2(C)CC[C@@H](O)C[C@@H]12
Target under test: Glutathione-S-transferase-labeled FXR human protein (Homo sapiens)
Class assignment: TRUE

Molecule: CC[C@H]1[C@@H](O)[C@@H]2[C@H](CC[C@]3(C)[C@@H]([C@H](C)CCOc4ccc(C(=O)NC5CC5)cn4)CC[C@@H]23)[C@@]2(C)CC[C@@H](O)C[C@@H]12
Target under test: Glutathione-S-transferase-labeled FXR human protein (Homo sapiens)
Class assignment: FALSE

Molecule: CC[C@H]1[C@@H](O)[C@@H]2[C@H](CC[C@]3(C)[C@@H]([C@H](C)CCn4cc(C(=O)O)ccc4=O)CC[C@@H]23)[C@@]2(C)CC[C@@H](O)C[C@@H]12
Target under test: Glutathione-S-transferase-labeled FXR human protein (Homo sapiens)
Class assignment: FALSE

Molecule: CC[C@H]1[C@@H](O)[C@@H]2[C@H](CC[C@]3(C)[C@@H]([C@H](C)CCOc4cccc(C(=O)O)c4)CC[C@@H]23)[C@@]2(C)CC[C@@H](O)C[C@@H]12
Target under test: Glutathione-S-transferase-labeled FXR human protein (Homo sapiens)
Class assignment: TRUE

Molecule: CC[C@H]1[C@@H](O)[C@@H]2[C@H](CC[C@]3(C)[C@@H]([C@H](C)CCOc4ncc(C(=O)O)cc4F)CC[C@@H]23)[C@@]2(C)CC[C@@H](O)C[C@@H]12
Target under test: Glutathione-S-transferase-labeled FXR human protein (Homo sapiens)
Class assignment: FALSE

Does CC[C@H]1[C@@H](O)[C@@H]2[C@H](CC[C@]3(C)[C@@H]([C@H](C)CCOc4cnccc4C(=O)O)CC[C@@H]23)[C@@]2(C)CC[C@@H](O)C[C@@H]12 have a reported Emax of at least 200%?
TRUE

And CC[C@H]1[C@@H](O)[C@@H]2[C@H](CC[C@]3(C)[C@@H]([C@H](C)CCOc4ccc(C(=O)OC)cn4)CC[C@@H]23)[C@@]2(C)CC[C@@H](O)C[C@@H]12 ?
FALSE

Try CC[C@H]1[C@@H](O)[C@@H]2[C@H](CC[C@]3(C)[C@@H]([C@H](C)CCOc4ccc(C(=O)NS(C)(=O)=O)cn4)CC[C@@H]23)[C@@]2(C)CC[C@@H](O)C[C@@H]12 next.
TRUE
